Record form. Attribute: growth. Fill in for each entry.
Test system: NCI-H460 lung
Test: NCI-60 one-dose screen, 48 h (100 = growth as untreated, 0 = no growth, -100 = all killed)
Details: 10 µM
Compounds without any hit were thinned out: in the full panel of roughly 83,000, 20% have a hit.
Write down the numeric answer in % and omit the unit.

## Input Query: growth; subject: COC(=O)CCCCCCCCC(C)c1ccc(C(C)=O)cc1 (stereo unspecified)
## Output 108

## Input Query: growth; subject: CC(=O)Oc1ccc(C2=Cc3ccc(OC(C)=O)cc3OC2C)cc1 (stereo unspecified)
## Output 33.7

## Input Query: growth; subject: COc1cccc(-c2nnc(COc3ccc(-c4nc5ccccc5[nH]4)cc3OC)o2)c1
## Output 96.5

## Input Query: growth; subject: Nc1ccc(C2=CC(c3ccc(Cl)cc3)N3C=CSC3=N2)cc1 (stereo unspecified)
## Output -6.81

## Input Query: growth; subject: CCN(CC)CCOC(=O)c1ccc(N=Nc2ccc(O)c(OC)c2)cc1
## Output 110

## Input Query: growth; subject: Cc1cc(C#Cc2ccccc2)ccc1-n1c(/C=C/c2cc(O)ccc2O)nc2ccccc2c1=O
## Output -48.5

## Input Query: growth; subject: COc1ccc(COC(=O)CC(C)C)cc1
## Output 108

## Input Query: growth; subject: CCCCCC(CCC)COC(=O)c1ccc(OC)cc1 (stereo unspecified)
## Output 111

## Input Query: growth; subject: COc1ccc2nc(C)cc(Nc3ccc(Cl)cc3)c2c1
## Output 91.8

## Input Query: growth; subject: C#CCNCCCN1C(=O)c2ccc3c4c(ccc(c24)C1=O)C(=O)N(CCCNCC#C)C3=O
## Output -78.5

## Input Query: growth; subject: C[C@]12CC[C@H]3[C@@H](CCC4=CC(=O)CC[C@@]43C)[C@@H]1CC[C@@H]2c1csc(N)n1
## Output 42.4

## Input Query: growth; subject: N#Cc1ccc(-n2cnc(NC(=O)[C@H]3CCN(C#N)C3)c2)cc1
## Output 15.3

## Input Query: growth; subject: CC(=O)Nc1ccc(Sc2ccc(NC(C)=O)cc2)cc1
## Output 105

## Input Query: growth; subject: COc1cccc2c1C(=O)c1c(O)c3c(c(O)c1C2=O)C[C@@](O)(C(=O)COC(=O)c1ccccc1)C[C@@H]3OC1CC(N)C(O)C(C)O1 (stereo partly specified)
## Output -80.9

## Input Query: growth; subject: COc1ccc(-c2cc(/C=C/C(=O)c3ccc(N)cc3)[nH]n2)cc1OC
## Output 3.19

## Input Query: growth; subject: COc1cc(/C=C2\C(=O)Nc3cc(C)c(O)cc32)cc(OC)c1OC
## Output 40

## Input Query: growth; subject: COc1cc(/C=C/C(=O)c2cc(-c3ccc(F)cc3)ccc2O)cc(OC)c1OC
## Output 80.6

## Input Query: growth; subject: FC(F)(F)c1ccc(-c2cnc(Cl)nc2NC2CCCCCC2)cc1
## Output 25.8

## Input Query: growth; subject: O=C(Nc1cccc(Cl)c1)OCC(COC(=O)Nc1cccc(Cl)c1)(COC(=O)Nc1cccc(Cl)c1)[N+](=O)[O-]
## Output 17.9

## Input Query: growth; subject: COc1ccc2c(=O)cc(C(Cl)(Cl)Cl)oc2c1
## Output -7.69

## Input Query: growth; subject: O=C(NCCCl)c1cc(Cl)cc(Cl)c1
## Output 113

Values were extracted from PubChem BioAssay (NCI).
